# Tested on: rodent lifetime carcinogenesis bioassay, tumor incidence TD50
# assayInfo: carcinogenic potency in animals, long-term in vivo studies, CPDB compilation (AID 1745844)
# conditionNotes: mouse; strain AP Alderly Park; females; in feed; site: liver; lesion: hepatocellular carcinoma; dosed 78 weeks; study length 78 weeks
assayMetric: TD50

Q. Form field: reported TD50 of COC(=O)C(C)(C)Oc1ccc(-c2ccc(Cl)cc2)cc1
A. 8.3 mg/kg/day

====

# Test system: rodent lifetime carcinogenesis bioassay, tumor incidence TD50
# assayInfo: carcinogenic potency in animals, long-term in vivo studies, CPDB compilation (AID 1745844)
# conditionNotes: rat; strain Sprague-Dawley; females; in feed; site: several sites; sites named in the paper; lesion: hemangioendothelial sarcoma; dosed 40 weeks; study length 59 weeks
assayMetric: TD50

Q. Please report the recorded TD50 for CC(=O)Nc1nnc(-c2ccc([N+](=O)[O-])o2)s1 .
A. 10.6 mg/kg/day

====

# System: rodent lifetime carcinogenesis bioassay, tumor incidence TD50
# assayInfo: carcinogenic potency in animals, long-term in vivo studies, CPDB compilation (AID 1745844)
# conditionNotes: mouse; strain B6C3F1; males; in drinking water; site: all sites; lesion: lymphoma; dosed 90 weeks; study length 91 weeks
assayMetric: TD50 (mg/kg/day)
Field format: number, assumed mg/kg/day, no unit text.

Q. Hello, I am looking for reported TD50 with rodent lifetime carcinogenesis bioassay, tumor incidence TD50 for C1COCCO1 . Could you help?
A. 3930

====

# Test system: rodent lifetime carcinogenesis bioassay, tumor incidence TD50
# assayInfo: carcinogenic potency in animals, long-term in vivo studies, CPDB compilation (AID 1745844)
# conditionNotes: mouse; strain CSb; females; in feed; site: liver; lesion: hepatocellular carcinoma; dosed 82 weeks; study length 82 weeks
assayMetric: TD50

Q. Which TD50 is listed for Cc1cccc(Nc2cc(Cl)nc(SCC(=O)NCCO)n2)c1C ?
A. 44.6 mg/kg/day

====

# System: rodent lifetime carcinogenesis bioassay, tumor incidence TD50
# assayInfo: carcinogenic potency in animals, long-term in vivo studies, CPDB compilation (AID 1745844)
# conditionNotes: mouse; strain CF-1; females; in feed; site: lung; lesion: alveogenic adenocarcinoma; dosed 78 weeks; study length 78 weeks
assayMetric: TD50
For clarity, give the value followed by its unit.

Q. Item CC(C)(C)NC[C@H](O)COc1cccc2c1CCCC2=O with rodent lifetime carcinogenesis bioassay, tumor incidence TD50 - TD50?
A. 2500 mg/kg/day

====

# Test system: rodent lifetime carcinogenesis bioassay, tumor incidence TD50
# assayInfo: carcinogenic potency in animals, long-term in vivo studies, CPDB compilation (AID 1745844)
# conditionNotes: rat; strain ACI; females; in feed; site: colorectum; lesion: squamous-cell carcinoma; dosed 68 weeks; study length 68 weeks
assayMetric: TD50

Q. Please give the measured TD50 for this compound: CCOC(=O)c1ccc(N)cc1
A. 1760 mg/kg/day

====

# Test system: rodent lifetime carcinogenesis bioassay, tumor incidence TD50
# assayInfo: carcinogenic potency in animals, long-term in vivo studies, CPDB compilation (AID 1745844)
# conditionNotes: rat; strain Fischer 344; males; inhaled; site: testis; lesion: interstitial-cell adenoma, bilateral + interstitial-cell adenoma; dosed 104 weeks; study length 104 weeks
TD50 values by entry

chemicalString	targetEntity	TD50
C=CC(=C)C	rodent lifetime carcinogenesis bioassay, tumor incidence TD50	914 mg/kg/day

We now examine a further compound.
Q. Query: TD50; subject: CCc1ccccc1
A. 24.8 mg/kg/day

====

# Tested on: rodent lifetime carcinogenesis bioassay, tumor incidence TD50
# assayInfo: carcinogenic potency in animals, long-term in vivo studies, CPDB compilation (AID 1745844)
# conditionNotes: rat; strain Osborne-Mendel; males; in feed; site: liver; lesion: hepatocellular adenoma + hepatocellular carcinoma + neoplastic nodule; dosed 80 weeks; study length 111 weeks
assayMetric: TD50 (mg/kg/day)
// units = mg/kg/day; emit number, no label

Q. Request the reported TD50 associated with ClC1C2(Cl)C3C4C5OC5C5C4C1(Cl)C(Cl)(C53)C2(Cl)Cl (stereo unspecified)
A. 7.72

====

# Test system: rodent lifetime carcinogenesis bioassay, tumor incidence TD50
# assayInfo: carcinogenic potency in animals, long-term in vivo studies, CPDB compilation (AID 1745844)
# conditionNotes: mouse; strain B6C3F1; males; by gavage; site: any site (literature study); lesion: several types; types named in the paper; dosed 103 weeks; study length 105 weeks
Measured TD50, listed per entry.

The examples below pair each entry with its known result.
compound	TD50
Nc1ccc(Cl)cc1	83.7 mg/kg/day
CC(CCl)OC(C)CCl (stereo not drawn)	116 mg/kg/day
CC(Cl)CCl (stereo not drawn)	397 mg/kg/day

Q. Give recorded TD50 with rodent lifetime carcinogenesis bioassay, tumor incidence TD50 for the following compound: ClC=C(Cl)Cl
A. 332 mg/kg/day

Q. Similarly, C=C(C)CCl ?
A. 402 mg/kg/day

====

# Test system: rodent lifetime carcinogenesis bioassay, tumor incidence TD50
# assayInfo: carcinogenic potency in animals, long-term in vivo studies, CPDB compilation (AID 1745844)
# conditionNotes: rat; strain Fischer 344; females; by gavage; site: liver; lesion: hepatocellular adenoma + hepatocellular carcinoma; dosed 103 weeks; study length 104 weeks
assayMetric: TD50

Q. Form field: reported TD50 of c1ccoc1
A. 11.2 mg/kg/day

====

# Tested on: rodent lifetime carcinogenesis bioassay, tumor incidence TD50
# assayInfo: carcinogenic potency in animals, long-term in vivo studies, CPDB compilation (AID 1745844)
# conditionNotes: rat; strain Fischer 344; males; in drinking water; site: peritoneum; lesion: mesothelioma; dosed 110 weeks; study length 111 weeks
assayMetric: TD50

Q. Identify the measured TD50 of [O-][Br+2]([O-])O for rodent lifetime carcinogenesis bioassay, tumor incidence TD50.
A. 25.3 mg/kg/day

====

# System: rodent lifetime carcinogenesis bioassay, tumor incidence TD50
# assayInfo: carcinogenic potency in animals, long-term in vivo studies, CPDB compilation (AID 1745844)
# conditionNotes: rat; strain Sprague-Dawley; females; inhaled; site: mammary tissue, wider than the gland; lesion: several types; types named in the paper; dosed 52 weeks; study length 104 weeks
assayMetric: TD50

Q. Data request, read-out TD50, for C=Cc1ccccc1
A. 23.3 mg/kg/day

====

# Test system: rodent lifetime carcinogenesis bioassay, tumor incidence TD50
# assayInfo: carcinogenic potency in animals, long-term in vivo studies, CPDB compilation (AID 1745844)
# conditionNotes: mouse; strain B6C3F1; females; in feed; site: all sites; lesion: angiosarcoma; dosed 103 weeks; study length 104 weeks
assayMetric: TD50

Q. Report TD50 for Nc1ccccc1-c1ccccc1 please.
A. 1280 mg/kg/day

====

# System: rodent lifetime carcinogenesis bioassay, tumor incidence TD50
# assayInfo: carcinogenic potency in animals, long-term in vivo studies, CPDB compilation (AID 1745844)
# conditionNotes: rat; strain Fischer 344; females; by gavage; site: mammary gland; lesion: adenoma, NOS; dosed 103 weeks; study length 104 weeks
Active and inactive are the calls of the source. No rule for the calls is given here.
assayMetric: TD50

Q. Can you look up the measured TD50 of Cc1cccc(C)c1 for me?
A. 4110 mg/kg/day (inactive)

====

# Tested on: rodent lifetime carcinogenesis bioassay, tumor incidence TD50
# assayInfo: carcinogenic potency in animals, long-term in vivo studies, CPDB compilation (AID 1745844)
# conditionNotes: rat; strain F344/DuCrj; females; in drinking water; site: any site (literature study); lesion: several types; types named in the paper; dosed 104 weeks; study length 114 weeks
Active and inactive are the calls of the source. The rule behind the calls is not given here.
assayMetric: TD50

Q. Suppose we examine the compound O=C(OC[C@@H]1O[C@H](OC(=O)c2cc(O)c(O)c(OC(=O)c3cc(O)c(O)c(O)c3)c2)[C@@H](OC(=O)c2cc(O)c(O)c(OC(=O)c3cc(O)c(O)c(O)c3)c2)[C@H](OC(=O)c2cc(O)c(O)c(OC(=O)c3cc(O)c(O)c(O)c3)c2)[C@H]1OC(=O)c1cc(O)c(O)c(OC(=O)c2cc(O)c(O)c(O)c2)c1)c1cc(O)c(O)c(OC(=O)c2cc(O)c(O)c(O)c2)c1 ; what TD50 value has been reported?
A. 620 mg/kg/day (inactive)

====

# Tested on: rodent lifetime carcinogenesis bioassay, tumor incidence TD50
# assayInfo: carcinogenic potency in animals, long-term in vivo studies, CPDB compilation (AID 1745844)
# conditionNotes: rat; strain IcoIbm:OFA (Sprague-Dawley derived); females; inhaled; site: nasal cavity, olfactory region, Bowman's gland; lesion: adenoma; dosed 102 weeks; study length 102 weeks
assayMetric: TD50 (mg/kg/day)
The reply should contain only the number, in mg/kg/day.

Q. # lookup: TD50 of COc1ccc(C(=O)Nc2c(Cl)cncc2Cl)cc1OC1CCCC1
A. 24.7

====

# Tested on: rodent lifetime carcinogenesis bioassay, tumor incidence TD50
# assayInfo: carcinogenic potency in animals, long-term in vivo studies, CPDB compilation (AID 1745844)
# conditionNotes: mouse; strain B6C3F1; males; inhaled; site: liver; lesion: angiosarcoma; dosed 78 weeks; study length 135 weeks
assayMetric: TD50

Q. # query: TD50 | item ClC=C(Cl)Cl | system: rodent lifetime carcinogenesis bioassay, tumor incidence TD50
A. 77000 mg/kg/day
